Task for the reader: assign each of the following compounds its reported refractive index.
test: refractive index (Na D-line) (dimensionless); conditions: 298.15 K; 101.33 kPa; Liquid; Standard Abbe refractometry
Answers are plain numbers.

Below, each entry is followed by its recorded refractive index result.
{"compound": "CC(C)CC(C)(C)C", "recorded.measurement": 1.389}
{"compound": "CCOC(C)(C)C", "recorded.measurement": 1.373}
{"compound": "c1ccsc1", "recorded.measurement": 1.5255}

Would you kindly look at the next entry?
Qu. Any idea what its refractive index is? The compound is Cc1ccccc1
Ans. 1.494
